Molecular target: Hs_FPR1 (Homo sapiens)
Construct: expressed in transfected cells
Sequence (P21462 whole entry): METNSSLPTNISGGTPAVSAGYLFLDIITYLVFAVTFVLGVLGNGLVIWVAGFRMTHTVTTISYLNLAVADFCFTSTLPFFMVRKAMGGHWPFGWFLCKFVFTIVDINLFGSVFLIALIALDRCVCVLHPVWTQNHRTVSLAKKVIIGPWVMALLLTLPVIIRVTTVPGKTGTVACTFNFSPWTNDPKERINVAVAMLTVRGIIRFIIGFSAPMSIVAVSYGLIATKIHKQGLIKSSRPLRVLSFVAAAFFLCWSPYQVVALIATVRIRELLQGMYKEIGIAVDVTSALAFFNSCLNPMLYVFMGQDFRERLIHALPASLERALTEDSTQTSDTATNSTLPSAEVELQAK
Assay: ERK1/2 phosphorylation by Western blotting
Format: cell-based
Details: log of EC50; phosphorylation of ERK1/2, HEK293 stable cells; mean; ND = no pERK signal detected
pEC50: −log10 of the molar value. Where a SMILES comes first, the peptide text is derived from it. The star is where a group is joined. For = O=C*

COMPOUND	TEST_TARGET	pEC50
COc1cc(F)c([C@@H]2CNC(=O)[C@H]2NC(=O)Nc2ccccc2)c(F)c1	Hs_FPR1 (Homo sapiens)	4.79
CSCC[C@H](NC=O)C(=O)N[C@@H](CC(C)C)C(=O)N[C@@H](Cc1ccccc1)C(=O)N[C@@H](CCCCN)C(=O)O [fMLFK, fMet-Leu-Phe-Lys] (For-MLFK-OH)	Hs_FPR1 (Homo sapiens)	8.16

Entry source: paper PMC12881670
